Molecular target: T1, recombinant human VEGF165 (human, UniProt P15692-4 27-191)
T1 construct: also called hVEGF165; rhVEGF165
T1 sequence (P15692 other isoform, or with tags, fused parts or gaps limits assumed): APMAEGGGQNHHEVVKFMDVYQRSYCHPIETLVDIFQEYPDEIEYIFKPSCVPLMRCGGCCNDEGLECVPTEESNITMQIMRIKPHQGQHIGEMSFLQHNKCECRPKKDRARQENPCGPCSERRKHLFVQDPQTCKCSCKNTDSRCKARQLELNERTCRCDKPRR
Assay: VEGF165/hVEGFR1-Fc competition AlphaScreen
Measurement Kind: % inhibition (%)
Numbers only, in %.

Could you share which % inhibition value was measured for VEGFBII025 (VHH, biparatopic bivalent VHH in one chain; also called VEGFBII10E07-40GS-23B04) EVQLVESGGGLVQAGGSLRLSCAASGRTFSNYAMGWFRQAPGKERVLVADISSSGINTYVADAVKGRFTISRDNAKNTVYLQMNSLKPEDTAVYYCAASAWWYSQMARDNYRYWGQGTQVTVSSGGGGSGGGGSGGGGSGGGGSGGGGSGGGGSGGGGSGGGGSEVQLVESGGGLVQTGDSLRLSCEVSGRTFSSYSMGWFRQAQGKEREFVVAISKGGYKYDSVSLEGRFTISKDNAKNTVYLQINSLKPEDTAVYYCASSRAYGSSRLRLADTYEYWGQGTQVTVSS ?
82
